# MEASUREMENT_TARGET: T1, human αvβ1 integrin on cells (human, UniProt P06756 31-1048; P05556 21-798)
# T1 construct: also called stably transfected human αvβ1 cells; αvβ1 on MRC9 human lung fibroblasts
# T1 sequence (P06756 31-1048 limits assumed, chain 1 of 2): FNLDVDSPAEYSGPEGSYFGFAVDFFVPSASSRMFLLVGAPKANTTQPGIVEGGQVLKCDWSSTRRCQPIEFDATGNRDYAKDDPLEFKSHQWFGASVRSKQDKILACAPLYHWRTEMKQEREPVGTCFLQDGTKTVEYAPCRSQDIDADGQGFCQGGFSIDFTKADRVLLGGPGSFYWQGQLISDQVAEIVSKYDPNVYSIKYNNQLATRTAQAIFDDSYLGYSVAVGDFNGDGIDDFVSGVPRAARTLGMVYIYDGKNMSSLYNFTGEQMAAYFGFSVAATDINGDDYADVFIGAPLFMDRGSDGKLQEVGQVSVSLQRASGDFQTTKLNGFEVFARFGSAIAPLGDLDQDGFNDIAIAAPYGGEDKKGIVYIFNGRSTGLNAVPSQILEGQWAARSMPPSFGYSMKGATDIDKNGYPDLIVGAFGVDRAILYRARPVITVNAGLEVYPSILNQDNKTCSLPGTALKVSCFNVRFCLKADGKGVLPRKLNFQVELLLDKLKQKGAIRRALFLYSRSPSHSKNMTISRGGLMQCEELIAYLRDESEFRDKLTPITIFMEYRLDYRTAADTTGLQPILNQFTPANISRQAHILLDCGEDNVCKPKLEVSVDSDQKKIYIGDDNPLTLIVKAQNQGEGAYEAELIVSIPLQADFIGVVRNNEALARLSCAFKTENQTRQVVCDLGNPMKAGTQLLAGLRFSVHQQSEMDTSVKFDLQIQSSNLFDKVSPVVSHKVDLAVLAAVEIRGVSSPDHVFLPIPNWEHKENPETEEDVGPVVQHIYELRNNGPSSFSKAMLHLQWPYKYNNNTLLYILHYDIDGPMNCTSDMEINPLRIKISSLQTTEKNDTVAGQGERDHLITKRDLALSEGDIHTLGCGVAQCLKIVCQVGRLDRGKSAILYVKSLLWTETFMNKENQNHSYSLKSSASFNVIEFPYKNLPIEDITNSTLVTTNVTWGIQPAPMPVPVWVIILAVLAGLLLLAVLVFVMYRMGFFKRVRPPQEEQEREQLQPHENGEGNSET
# T1 sequence (P05556 21-798 limits assumed, chain 2 of 2): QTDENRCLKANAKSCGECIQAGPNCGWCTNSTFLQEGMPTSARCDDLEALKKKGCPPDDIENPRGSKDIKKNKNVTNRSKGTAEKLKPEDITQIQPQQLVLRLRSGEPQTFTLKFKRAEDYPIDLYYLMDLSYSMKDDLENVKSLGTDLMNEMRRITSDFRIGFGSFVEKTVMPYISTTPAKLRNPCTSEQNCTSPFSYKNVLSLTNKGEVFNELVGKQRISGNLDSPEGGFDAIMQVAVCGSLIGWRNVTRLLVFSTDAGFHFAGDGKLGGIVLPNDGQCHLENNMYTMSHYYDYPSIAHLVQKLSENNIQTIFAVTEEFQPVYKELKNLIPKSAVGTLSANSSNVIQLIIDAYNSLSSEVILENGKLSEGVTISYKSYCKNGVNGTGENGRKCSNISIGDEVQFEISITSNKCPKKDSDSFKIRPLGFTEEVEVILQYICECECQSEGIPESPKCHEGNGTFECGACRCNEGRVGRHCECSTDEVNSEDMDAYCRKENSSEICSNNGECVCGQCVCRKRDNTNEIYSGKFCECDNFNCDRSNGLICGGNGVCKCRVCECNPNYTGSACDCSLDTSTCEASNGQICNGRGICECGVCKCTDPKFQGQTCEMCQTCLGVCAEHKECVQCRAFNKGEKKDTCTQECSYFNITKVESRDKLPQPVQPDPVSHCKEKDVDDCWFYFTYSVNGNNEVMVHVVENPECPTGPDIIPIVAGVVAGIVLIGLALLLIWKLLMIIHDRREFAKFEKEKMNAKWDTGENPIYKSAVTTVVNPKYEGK
# ASSAY_DETAILS: inhibition of adhesion of BCECF-labelled αvβ1-transfected cells to plate-coated LAP
EXPERIMENTAL_ENDPOINT: pIC50
The value called pIC50 is obtained by taking minus log10 of the concentration in mol/L.

BINDER	VAL
Exemplary Antibody 6 (antibody, V domains shown, expressed in yeast (Adimab platform) and purified on protein A; also called Ex. Ab 6) VH: QVQLVESGGGLVKPGGSLRLSCAASGFTFSDYYMSWIRQAPGKGLEWVSYISSSGSTIYYADSVKGRFTISRDNAKNSLYLQMNSLRAEDTAVYYCARGGRNRGDSSLSGIDVWGQGTTVTVSS VL: DIQMTQSPSSLSASVGDRVTITCRASQSINSYLNWYQQKPGKAPKLLIYAASSLQSGVPSRFSGSGSGTDFTLTISSLQPEDFATYYCQQQYSDITFGGGTKVEIK	8.05

Suppose we examine the binder Exemplary Antibody 13 (antibody, V domains shown, expressed in yeast (Adimab platform) and purified on protein A; also called Ex. Ab 13) VH: QVQLVESGGGLVKPGGSLRLSCAASGFTFSDYYMSWIRQAPGKGLEWVSYISSSGSTIYYADSVKGRFTISRDNAKNSLYLQMNSLRAEDTAVYYCARGGPSRGDALAEYFQHWGQGTTVTVSS VL: EIVMTQSPATLSVSPGERATLSCRASQSVSSNLAWYQQKPGQAPRLLIYGASTRATGIPARFSGSGSGTEFTLTISSLQSEDFAVYYCQQLTNHPPIAFGGGTKVEIK ; what pIC50 value has been reported?
8.89

The measurements presented in this section are drawn from patent US20220195052A1.
